Where do the numbers come from? From patent US7446111B2.

- protocol-notes: physchem
- Assay type: physicochemical
- measurement-parameters: 25 °C, pH 4.6, aqueous buffer, thermodynamic from solid
property-measured: solubility at 0.5 h (µg/mL)

CO[C@H]1C[C@@H]2CC[C@@H](C)[C@@](O)(O2)C(=O)C(=O)N2CCCC[C@H]2C(=O)O[C@H]([C@H](C)C[C@@H]2CC[C@@H](OC(=O)C(C)(CO)CO)[C@H](OC)C2)CC(=O)[C@H](C)/C=C(\C)[C@@H](O)[C@@H](OC)C(=O)[C@H](C)C[C@H](C)/C=C/C=C/C=C/1C [Crystalline, reference compound]
0.26

###

- protocol-notes: physchem
- Format: physicochemical
- measurement-parameters: 25 °C, pH 4.73, aqueous with cosolvent or surfactant or cyclodextrin, thermodynamic from solid
property-measured: solubility at 48 h (µg/mL)

CO[C@H]1C[C@@H]2CC[C@@H](C)[C@@](O)(O2)C(=O)C(=O)N2CCCC[C@H]2C(=O)O[C@H]([C@H](C)C[C@@H]2CC[C@@H](OC(=O)C(C)(CO)CO)[C@H](OC)C2)CC(=O)[C@H](C)/C=C(\C)[C@@H](O)[C@@H](OC)C(=O)[C@H](C)C[C@H](C)/C=C/C=C/C=C/1C [Crystalline, reference compound]
640

###

- protocol-notes: physchem
- Type: physicochemical
- measurement-parameters: 25 °C, pH 4.6, aqueous buffer, thermodynamic from solid
property-measured: solubility at 24 h (µg/mL)

CO[C@H]1C[C@@H]2CC[C@@H](C)[C@@](O)(O2)C(=O)C(=O)N2CCCC[C@H]2C(=O)O[C@H]([C@H](C)C[C@@H]2CC[C@@H](OC(=O)C(C)(CO)CO)[C@H](OC)C2)CC(=O)[C@H](C)/C=C(\C)[C@@H](O)[C@@H](OC)C(=O)[C@H](C)C[C@H](C)/C=C/C=C/C=C/1C [Crystalline, reference compound]
0.61
